- Test system: Grans
- Assay: Peptidases to distinguish leukemia from non-leukemia, granulocytes
- Type: cell-based, human
- Parameters: unit not given here
- Test context: P70 cirrhosis/hemobilia
Observed property: enzyme activity
Reply: number alone, nothing else.

As a guide, the following entries are already answered.
For the molecule shown here, NCCCC[C@H](N)C(=O)Nc1ccc2c(c1)Oc1cc(NC(=O)[C@@H](N)CCCCN)ccc1C21OC(=O)c2ccccc21 [LYS, (H--L--Lys)2 Rho 110-4TFA] , give the reported enzyme activity.
2.33

For the molecule shown here, O=C1OC2(c3ccc(NC(=O)[C@@H]4CCCN4)cc3Oc3cc(NC(=O)[C@@H]4CCCN4)ccc32)c2ccccc21 [PRO, (H--L--Pro)2 Rho 110-2TFA] , give the reported enzyme activity.
0.66

***
For the molecule shown here, NCC(=O)N1CCC[C@H]1C(=O)Nc1ccc2c(c1)Oc1cc(NC(=O)[C@@H]3CCCN3C(=O)CN)ccc1C21OC(=O)c2ccccc21 , give the reported enzyme activity.
16.42

For the molecule shown here, CC(C)[C@H](N)C(=O)N[C@@H](CO)C(=O)Nc1ccc2c(c1)Oc1cc(NC(=O)[C@H](CO)NC(=O)[C@@H](N)C(C)C)ccc1C21OC(=O)c2ccccc21 [VS, (H--L--Val--Ser)2 Rho 110-2TFA] , give the reported enzyme activity.
0.26
